Tested on: Serius
// label = label 1 if Fluorescence quench Average is not less than 0.8, otherwise label 0

Answered examples (3):
> print(dat)
                                   compound  measurement.target  label.value
1                                 NCCCNCCCN              Serius      label 0
2                                CCN(CC)CCO              Serius      label 0
3  C1CCC2=NCCCN2CC1 [#0594, 1,8-Diazabicyclo [5.4.0]-7-undecene]              Serius      label 0

Task item: Assess whether reported Fluorescence quench Average for Cc1cc(=O)n(-c2ccccc2)n1C sits at 0.8 or higher.
Reply: label 1

Task item: Is Fluorescence quench Average for CCCCCCCCCCCCCCCC[N+](C)(C)C.[Cl-] [#1235, Hexadecyltrimethyl- ammonium chloride] at or above 0.8?
Reply: label 1

* * *

METHOD: Refractive index of high-concentration aqueous solution
Format: physicochemical
EXPERIMENTAL_CONTEXT: Table 3; chemical conc. 70 wt %
Where a name gives a salt, the structure may show the parent alone.
Could you please report measured RI for the items listed next?
Give bare numbers.

> print(dat)
                                   molecule  result.value
1  CN(C)CCSSCCN(C)C [#0299, dihydrochloride]        1.4937

Hello, I would appreciate it if you could give RI for each entry below.
1. Cc1cc[n+]([O-])cc1 [#1145, 4- Methylpyridine N-oxide]
2. Cc1cccc[n+]1[O-] [#1140, 2-Methyl-pyridine N-oxide]
3. Cc1ccc(C(=O)C(C)CN2CCCCC2)cc1.Cl (centres unmarked) [#1392, Tolperisone hydrochloride]
4. CN(C)CCOC(c1ccccc1)c1ccccc1.Cl [#0809, Diphen- hydramine hydrochloride]

Reply:
1. 1.5073
2. 1.4919
3. 1.4939
4. 1.4990

* * *

Tested on: bovine coagulated blood
METHOD: Decoloring screening: heme eluted from bovine coagulated blood (OD420-OD700)
EXPERIMENTAL_CONTEXT: decolorization; OD420 calibrated by OD700
Given measured 700 nm calibrated 420 nm Average, output true if it is greater than or equal to 3 and false if not.

Sample answers from the record:
COMPOUND	LABEL_VALUE
Cc1cccc(C)n1 [#1008, 2,6-Lutidine]	false
CCC(N)CCN (stereo not drawn) [#0678]	false
NCC(O)CN [#1062]	false
Cc1ccnc(C)c1 [#1312, 2,4-Lutidine]	false
NCCCn1ccnc1 [#0484, 1-(3-aminopropyl)imidazole]	true
CN(CCCN)CCCN [#0380]	false
OCCCCCBr [#1367]	false
CCn1ccnc1 [#0938, 1-ethylimidazole]	true
NCCCCN [#0783]	false
C1CCC2=NCCCN2CC1 [#0594, 1,8-Diazabicyclo [5.4.0]-7-undecene]	true

Task item: Does C[C@H](CCC(=O)[O-])[C@H]1CC[C@H]2[C@@H]3CC[C@@H]4C[C@H](O)CC[C@]4(C)[C@H]3C[C@H](O)[C@]12C.[Na+] [#0562, Sodium deoxycholate] have a reported 700 nm calibrated 420 nm Average of at least 3?
Reply: false

Task item: Check the entry c1cnccn1 [#1086] : does 700 nm calibrated 420 nm Average equal or exceed 3?
Reply: false
